B1: Segment polarity protein dishevelled homolog DVL-3, residues 2 to 81; numbered along this chain, Q92997 (parent)
chain: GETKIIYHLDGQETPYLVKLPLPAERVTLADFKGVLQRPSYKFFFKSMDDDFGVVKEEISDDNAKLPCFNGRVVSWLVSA

Variants of: B1
Assay: abundance fitness (aPCA) (normalised: wild type 0, dead -1); higher = more abundant; growth selection in yeast, the domain comes from the species named
Conditions: Homo sapiens
reportedMetric: abundance fitness
One number for each entry.

For every record below, what is its abundance fitness?
1. T28L
2. F52V
3. K46E
4. D49L
5. F45D

-0.73
0.048
0.277
-0.564
-0.775

Hi! Can you tell me abundance fitness for each of these variants?
1. Q37K
2. V78Q
3. S75N

[0.165, -0.486, -0.899]

For each of the variants below, note its abundance fitness.
1. S60T
2. V54I
3. S40Y

-0.005
0.175
0.121

Batch: abundance fitness for all items listed.
1. K65D
2. A80S
3. A64E
4. F32K
5. A24D

1: -0.914; 2: 0.088; 3: -0.27; 4: -1.01; 5: -0.54

Provide abundance fitness values for the following items, in order.
1. A30Q
2. P39H
3. P21A
4. D61Y
5. V74Y
6. D50Y
7. C68E

1: -0.465; 2: 0.073; 3: -0.169; 4: -0.666; 5: 0.236; 6: -0.287; 7: -0.645

Look up abundance fitness for the entries below, preserving their order.
1. A80L
2. D31H

[-0.239, 0.282]

Return reported abundance fitness values for all items listed beneath this line.
1. V55F
2. W76C

1. 0.204
2. -0.737

# return abundance fitness for each item in the list
1. A80R
2. F44G
3. K42V
4. D61V
5. V78Y
6. K46T

1. -0.164
2. -0.754
3. -0.841
4. -0.695
5. 0.102
6. -0.392
